The origin of these recorded values is patent US10919841B2.

target: (h)DAT (Homo sapiens); construct: expressed in transfected cells; assay: block of [3H]dopamine reuptake in HEK-(h)DAT cells; format: cell-based; conditions: [3H]DA; read-out: IC50 for DA uptake inhibition
Sequence (Q01959 whole entry): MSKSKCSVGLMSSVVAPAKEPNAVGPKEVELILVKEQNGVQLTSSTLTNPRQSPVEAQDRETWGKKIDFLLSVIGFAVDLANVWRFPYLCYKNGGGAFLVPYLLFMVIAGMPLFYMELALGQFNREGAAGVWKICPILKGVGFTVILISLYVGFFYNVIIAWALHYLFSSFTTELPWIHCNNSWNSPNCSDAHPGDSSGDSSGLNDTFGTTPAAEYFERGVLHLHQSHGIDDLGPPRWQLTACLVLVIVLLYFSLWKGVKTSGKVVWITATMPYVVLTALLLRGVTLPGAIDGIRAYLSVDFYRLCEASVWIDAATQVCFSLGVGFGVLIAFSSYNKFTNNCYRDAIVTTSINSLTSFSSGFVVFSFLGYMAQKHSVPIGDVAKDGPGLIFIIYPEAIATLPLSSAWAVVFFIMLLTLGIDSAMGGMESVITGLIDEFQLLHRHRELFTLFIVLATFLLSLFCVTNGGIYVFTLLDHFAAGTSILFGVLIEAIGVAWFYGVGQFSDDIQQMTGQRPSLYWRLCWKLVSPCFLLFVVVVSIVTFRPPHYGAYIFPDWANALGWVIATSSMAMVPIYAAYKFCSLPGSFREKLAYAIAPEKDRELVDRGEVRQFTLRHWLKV
Could you please report measured pIC50 for the items listed next?
One number for each entry, as −log10 of the molar value.

CC(NC1CCC1)C(=O)c1cccc(Cl)c1 (stereo not shown) : 6.59
Cc1ccc(C(=O)C(C)NC(C)(C)C)cc1Cl (stereo not shown) : 6.19
CC(C)NC(C)C(=O)c1cccc(Cl)c1 (stereo not shown) : 5.70
CC(NC1CC1)C(=O)c1cccc(Cl)c1 (stereo not shown) : 6.58
CC(C(=O)c1cccc(Cl)c1)N(C)C (stereo not shown) : 5.81

Fill in pIC50 for each of the 6 compounds listed.
1. CC(C(=O)c1cccc(Cl)c1)N1CCCCC1 (stereo not shown)
2. CCCCCCC(NC(C)(C)C)C(=O)c1cccc(Cl)c1 (stereo not shown)
3. CC(NC(C)(C)C)C(=O)c1cccc(Br)c1 (stereo not shown)
4. CCCCC(NC(C)(C)C)C(=O)c1cccc(Cl)c1 (stereo not shown)
5. CC(C)CC(NC(C)(C)C)C(=O)c1cccc(Cl)c1 (stereo not shown)
6. CC(NC(C)(C)C)C(=O)c1ccc(Cl)c(Cl)c1 (stereo not shown)

Ans.
[5.99, 6.87, 6.02, 7.16, 6.36, 6.57]

For record CC(NC1CCCC1)C(=O)c1cccc(Cl)c1 (stereo not shown) the listed pIC50 is 6.01

====

molecular target: (h)NET (Homo sapiens); test: block of [3H]norepinephrine reuptake in HEK-(h)NET cells; details: read-out: Uptake, IC50 [3H]NE; mean ± standard error of three independent experiments
measured_parameter: IC50

CCCCCCC(NC(C)(C)C)C(=O)c1cccc(Cl)c1 (centres unmarked) : 4.89 µM

Hey, quick one: what's IC50 for each of these?
1. CC(C(=O)c1cccc(Cl)c1)N(C)C (centres unmarked)
2. CC(NC1CCC1)C(=O)c1cccc(Cl)c1 (centres unmarked)
3. CC(C)CC(NC(C)(C)C)C(=O)c1cccc(Cl)c1 (centres unmarked)
4. CC(NC(C)(C)C)C(=O)c1ccc(Cl)c(Cl)c1 (centres unmarked)

Ans.
1. 1.26 µM
2. 0.086 µM
3. 0.36 µM
4. 2.1 µM

====

target: (h)NET (Homo sapiens, UniProt P23975); experiment: block of [3H]norepinephrine reuptake in HEK-(h)NET cells; details: read-out: IC50 for NE uptake inhibition; [3H]NE
Sequence (P23975 whole entry): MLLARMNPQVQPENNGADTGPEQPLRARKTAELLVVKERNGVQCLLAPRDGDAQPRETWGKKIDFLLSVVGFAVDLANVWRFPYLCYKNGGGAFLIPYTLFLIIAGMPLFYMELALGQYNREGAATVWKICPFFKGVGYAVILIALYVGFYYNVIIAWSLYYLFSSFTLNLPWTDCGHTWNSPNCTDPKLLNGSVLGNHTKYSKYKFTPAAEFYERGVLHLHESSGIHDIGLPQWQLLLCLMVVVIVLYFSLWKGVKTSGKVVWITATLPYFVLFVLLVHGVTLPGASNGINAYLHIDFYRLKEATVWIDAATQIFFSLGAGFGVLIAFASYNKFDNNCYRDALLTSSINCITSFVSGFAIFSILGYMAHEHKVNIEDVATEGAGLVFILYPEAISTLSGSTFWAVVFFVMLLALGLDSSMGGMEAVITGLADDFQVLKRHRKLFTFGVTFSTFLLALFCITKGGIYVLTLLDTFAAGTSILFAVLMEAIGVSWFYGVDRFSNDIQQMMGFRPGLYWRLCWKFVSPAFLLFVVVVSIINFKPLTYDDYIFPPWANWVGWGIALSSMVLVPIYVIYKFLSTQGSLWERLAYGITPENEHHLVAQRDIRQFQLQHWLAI
pIC50: −log10 of the molar value.
# cutoff 7 applies to pIC50; >= gives YES, < gives NO

Qu. I'd appreciate it if you could say whether CCCC(NC(C)(C)C)C(=O)c1ccc(Cl)c(Cl)c1 (centres unmarked) [Compound 2bb] has pIC50 at least equal to 7.
Ans. YES

Qu. Check this compound for pIC50 at or above 7: CC(NC1CC1)C(=O)c1cccc(Cl)c1 (centres unmarked) [Compound 2x]
Ans. NO

Qu. Record CC(NC1CCCC1)C(=O)c1cccc(Cl)c1 (centres unmarked) [Compound 2z] ; criterion: pIC50 no lower than 7. Met?
Ans. NO

====

tested on: rats; assay: cocaine discrimination time-course study, oral administration; details: Rattus norvegicus, po, 0.75 h
Would you kindly list ED50 for each of these compounds?
Numbers only, in mg/kg.

Please review the entries below; each comes with its answer.
CC(NC1CCCC1)C(=O)c1cccc(Cl)c1 (stereo not drawn) : 8.28
CC(NC(C)(C)C)C(=O)c1cc(F)cc(F)c1 (stereo not drawn) : 43.6
CCCCCCC(NC(C)(C)C)C(=O)c1cccc(Cl)c1 (stereo not drawn) : 37.9
CC(NC(C)(C)C)C(=O)c1cccc(Br)c1 (stereo not drawn) : 52.4
CC(NC1CC1)C(=O)c1cccc(Cl)c1 (stereo not drawn) : 13.3

Report ED50 for every entry below.
1. CCCC(NC(C)(C)C)C(=O)c1cccc(Cl)c1 (stereo not drawn)
2. CC(NC(C)(C)C)C(=O)c1cccc(Cl)c1 (racemic) [Compound 2a, reference compound]
3. CC(NC(C)(C)C)C(=O)c1cccc(F)c1 (stereo not drawn)
4. CC(C(=O)c1cccc(Cl)c1)N(C)C (stereo not drawn)

Ans.
[22.2, 23.2, 27.1, 5.36]
